This collection of values is drawn from patent US12187742B2.

This listing pairs molecules with measured IC50.
Assayed System: ATM (Homo sapiens (Human), UniProt Q13315)
Sequence (Q13315 whole entry): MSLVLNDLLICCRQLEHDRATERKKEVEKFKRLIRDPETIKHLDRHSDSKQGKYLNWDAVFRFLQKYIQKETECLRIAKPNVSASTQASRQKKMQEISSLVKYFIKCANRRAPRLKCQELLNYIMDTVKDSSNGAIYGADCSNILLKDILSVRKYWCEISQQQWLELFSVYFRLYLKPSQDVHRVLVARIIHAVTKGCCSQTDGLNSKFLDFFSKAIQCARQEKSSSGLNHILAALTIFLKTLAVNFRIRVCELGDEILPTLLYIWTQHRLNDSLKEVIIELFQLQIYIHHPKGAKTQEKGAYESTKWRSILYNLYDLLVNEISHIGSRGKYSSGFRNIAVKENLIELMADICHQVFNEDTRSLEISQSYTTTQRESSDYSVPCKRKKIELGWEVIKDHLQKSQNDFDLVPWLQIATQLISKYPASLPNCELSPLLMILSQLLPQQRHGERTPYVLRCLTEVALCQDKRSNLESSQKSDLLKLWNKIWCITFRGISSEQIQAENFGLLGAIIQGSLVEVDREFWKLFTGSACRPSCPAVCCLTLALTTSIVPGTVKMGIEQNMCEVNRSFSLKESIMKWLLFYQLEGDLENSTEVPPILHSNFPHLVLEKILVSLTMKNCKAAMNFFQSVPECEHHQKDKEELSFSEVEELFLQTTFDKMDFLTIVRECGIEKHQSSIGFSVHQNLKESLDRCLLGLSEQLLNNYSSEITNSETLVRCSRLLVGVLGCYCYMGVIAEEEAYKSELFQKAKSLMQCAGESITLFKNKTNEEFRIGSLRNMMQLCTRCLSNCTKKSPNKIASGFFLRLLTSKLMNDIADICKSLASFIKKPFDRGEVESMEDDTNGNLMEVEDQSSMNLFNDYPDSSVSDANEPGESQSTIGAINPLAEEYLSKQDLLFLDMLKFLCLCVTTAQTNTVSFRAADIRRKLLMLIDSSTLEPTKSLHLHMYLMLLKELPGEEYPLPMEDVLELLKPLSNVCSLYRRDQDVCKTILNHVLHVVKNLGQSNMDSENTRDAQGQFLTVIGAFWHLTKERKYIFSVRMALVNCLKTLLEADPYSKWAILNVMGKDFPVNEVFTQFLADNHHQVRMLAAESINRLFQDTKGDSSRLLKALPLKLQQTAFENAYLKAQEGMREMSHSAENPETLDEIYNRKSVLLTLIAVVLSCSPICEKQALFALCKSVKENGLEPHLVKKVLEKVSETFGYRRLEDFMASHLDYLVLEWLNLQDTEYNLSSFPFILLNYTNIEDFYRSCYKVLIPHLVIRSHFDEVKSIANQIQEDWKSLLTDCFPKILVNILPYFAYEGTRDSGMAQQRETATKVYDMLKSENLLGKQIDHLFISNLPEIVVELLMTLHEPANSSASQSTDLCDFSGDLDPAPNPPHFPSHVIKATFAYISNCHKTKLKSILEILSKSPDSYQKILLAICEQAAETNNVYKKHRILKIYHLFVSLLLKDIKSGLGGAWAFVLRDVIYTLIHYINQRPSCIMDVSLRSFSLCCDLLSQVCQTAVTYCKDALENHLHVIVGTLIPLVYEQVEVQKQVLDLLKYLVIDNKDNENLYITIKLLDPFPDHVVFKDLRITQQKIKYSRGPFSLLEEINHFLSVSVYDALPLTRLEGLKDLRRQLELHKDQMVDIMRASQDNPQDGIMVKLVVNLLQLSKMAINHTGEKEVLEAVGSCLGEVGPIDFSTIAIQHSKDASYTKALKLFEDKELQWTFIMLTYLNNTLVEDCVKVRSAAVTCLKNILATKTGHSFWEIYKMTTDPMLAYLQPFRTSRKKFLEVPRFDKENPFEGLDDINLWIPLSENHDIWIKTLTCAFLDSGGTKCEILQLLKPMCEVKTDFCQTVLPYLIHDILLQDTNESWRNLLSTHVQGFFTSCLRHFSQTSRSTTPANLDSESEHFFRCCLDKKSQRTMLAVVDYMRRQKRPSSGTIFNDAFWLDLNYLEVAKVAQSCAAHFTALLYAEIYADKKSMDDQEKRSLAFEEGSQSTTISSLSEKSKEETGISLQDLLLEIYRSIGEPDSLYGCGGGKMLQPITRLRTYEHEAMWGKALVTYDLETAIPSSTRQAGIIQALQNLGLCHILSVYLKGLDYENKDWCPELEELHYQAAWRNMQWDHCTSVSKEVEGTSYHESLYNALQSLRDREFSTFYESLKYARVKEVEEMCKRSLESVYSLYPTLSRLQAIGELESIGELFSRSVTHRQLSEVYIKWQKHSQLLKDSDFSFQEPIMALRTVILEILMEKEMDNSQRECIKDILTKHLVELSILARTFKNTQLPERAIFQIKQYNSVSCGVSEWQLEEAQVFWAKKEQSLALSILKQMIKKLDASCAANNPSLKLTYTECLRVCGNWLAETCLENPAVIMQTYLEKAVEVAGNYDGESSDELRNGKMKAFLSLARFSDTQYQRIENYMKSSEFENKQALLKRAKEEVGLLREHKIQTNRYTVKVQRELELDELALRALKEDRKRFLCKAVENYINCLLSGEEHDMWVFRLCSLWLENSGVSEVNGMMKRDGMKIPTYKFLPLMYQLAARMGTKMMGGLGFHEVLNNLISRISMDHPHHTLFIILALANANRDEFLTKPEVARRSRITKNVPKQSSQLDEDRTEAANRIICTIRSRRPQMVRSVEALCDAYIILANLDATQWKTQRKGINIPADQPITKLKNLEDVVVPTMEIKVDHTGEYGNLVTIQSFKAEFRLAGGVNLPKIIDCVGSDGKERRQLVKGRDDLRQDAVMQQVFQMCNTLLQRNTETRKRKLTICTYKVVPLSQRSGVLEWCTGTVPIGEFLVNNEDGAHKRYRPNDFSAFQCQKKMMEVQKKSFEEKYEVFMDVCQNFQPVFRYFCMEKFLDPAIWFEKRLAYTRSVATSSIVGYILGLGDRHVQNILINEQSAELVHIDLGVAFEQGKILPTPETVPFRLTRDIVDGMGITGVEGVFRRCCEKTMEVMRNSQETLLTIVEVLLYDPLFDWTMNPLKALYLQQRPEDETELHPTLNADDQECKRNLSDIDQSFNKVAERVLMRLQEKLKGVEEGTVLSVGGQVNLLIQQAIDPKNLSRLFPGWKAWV
Assay Comment: ATM in Cell Western Assay (pKAP1 in etoposide-treated MCF-7 cells)
Assay type: cell-based
Assay Setup: MCF-7 cells, etoposide 100 μM, 1 hr, pKAP1 readout

// query IC50 value for entry CN(C)CCCOc1ncc(-c2ccc3ncc4c(c3c2)C2(CC2)C(=O)N4C)cc1NS(=O)(=O)c1cccc(C#N)c1 [Example 96]
0.5 to 1 nM

Would you kindly repeat that for CN(C)CCCOc1ncc(-c2ccc3ncc4c(c3c2)C2(CCC2)C(=O)N4C)cc1NS(=O)(=O)c1ccsc1 [Example 272] ?
0.5 to 1 nM

Would you kindly repeat that for COc1ncc(-c2ccc3ncc4c(c3c2)C2(CC2)C(=O)N4)cc1NS(=O)(=O)c1ccccc1 [Example 19] ?
1 to 100 nM

Would you kindly repeat that for CN1C(=O)C2(CC2)c2c1cnc1ccc(-c3cnc4ccccc4c3)cc21 [Example 20] ?
> 100 nM
